Target: Mu-type opioid receptor (Rattus norvegicus, UniProt P33535)
Sequence (P33535 whole entry): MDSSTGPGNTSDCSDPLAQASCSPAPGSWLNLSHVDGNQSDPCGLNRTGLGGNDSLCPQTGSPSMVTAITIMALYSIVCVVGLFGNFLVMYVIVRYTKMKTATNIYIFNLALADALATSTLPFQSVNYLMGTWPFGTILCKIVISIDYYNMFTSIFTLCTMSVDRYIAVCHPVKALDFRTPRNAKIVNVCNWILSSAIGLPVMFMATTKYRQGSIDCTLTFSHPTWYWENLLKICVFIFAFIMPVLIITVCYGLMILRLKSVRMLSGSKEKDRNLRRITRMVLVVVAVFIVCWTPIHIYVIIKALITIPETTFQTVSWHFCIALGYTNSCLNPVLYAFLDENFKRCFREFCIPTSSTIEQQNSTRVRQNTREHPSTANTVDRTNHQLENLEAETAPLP
pKi: −log10 of the molar value.
Label T when pKi is at or above 6; anything below gets F.

> print(dat)
                              smiles.record  assigned.label
1  C[C@H]1[C@H]2Cc3ccc(O)cc3[C@]1(C)CCN2CCC(=O)Nc1cccc2cnccc12               T
2  C[C@H]1[C@H]2Cc3ccc(O)cc3[C@]1(C)CCN2CCC(=O)Nc1ccc2ncccc2c1               F
3  C[C@H]1[C@H]2Cc3ccc(O)cc3[C@]1(C)CCN2CCC(=O)Nc1cccc2cccnc12               F
4  C[C@H]1[C@H]2Cc3ccc(O)cc3[C@]1(C)CCN2CCC(=O)Nc1cccc2ncccc12               F
5  C[C@H]1[C@H]2Cc3ccc(O)cc3[C@]1(C)CCN2CCC(=O)Nc1cccc2ccccc12               T
